Tested on: HeLa
Assay Text: Minimum cytotoxic concentration (MCC) required to cause a microscopically detectable alteration of host cell morphology, when incubated with HeLa cells
Type: functional
Condition Notes: Homo sapiens
Outcome Measure: MCC

Q: Quote MCC reported for Nc1ncnc2c1ncn2[C@@H]1O[C@H](CO)[C@H](O)[C@@H]1O (stereo in doubt; 8) please.
Ans: > 400 µg/mL

Q: Quote MCC reported for Nc1ccn([C@@H]2O[C@H](CO)[C@H](O)[C@@H]2O)c(=O)n1 please.
Ans: > 200 µg/mL

Q: Quote MCC reported for NC(=O)c1ncn([C@@H]2O[C@H](CO)[C@@H](O)[C@H]2O)n1 please.
Ans: > 200 µg/mL

Q: Quote MCC reported for Nc1nc2c(ncn2[C@@H]2O[C@H](CO)[C@H](O)[C@@H]2O)c(=O)[nH]1 please.
Ans: > 400 µg/mL

Q: Quote MCC reported for Nc1nc2c(ncn2[C@H]2O[C@H](CO)[C@H](O)[C@@H]2O)c(=O)[nH]1 please.
Ans: > 400 µg/mL

Q: Quote MCC reported for Cc1cn([C@H]2O[C@H](CO)[C@H](O)[C@@H]2O)c(=O)[nH]c1=O please.
Ans: > 400 µg/mL

Q: Quote MCC reported for O=c1ccn([C@H]2O[C@H](CO)[C@H](O)[C@@H]2O)c(=O)[nH]1 please.
Ans: > 400 µg/mL

###

System: WI-38
Assay Text: Minimum inhibitory concentration (MIC) required to reduce virus-induced cytopathogenicity by 50% against Rhinovirus-1A in human diploid (WI-38)cells
Type: functional
Outcome Measure: MIC

Q: Quote MIC reported for NC(=O)c1ncn([C@@H]2O[C@H](CO)[C@@H](O)[C@H]2O)n1 please.
Ans: 150 µg/mL

Q: Quote MIC reported for Nc1nccc2c1ncn2[C@@H]1C[C@H](CO)[C@@H](O)[C@H]1O please.
Ans: > 400 µg/mL

Q: Quote MIC reported for O=c1ccn([C@@H]2O[C@H](CO)[C@H](O)[C@@H]2O)c(=O)[nH]1 please.
Ans: > 400 µg/mL

Q: Quote MIC reported for Nc1nc2c(ncn2[C@H]2O[C@H](CO)[C@H](O)[C@@H]2O)c(=O)[nH]1 please.
Ans: > 400 µg/mL

Q: Quote MIC reported for Nc1ncnc2c1ncn2[C@@H]1O[C@H](CO)[C@H](O)[C@@H]1O (stereo in doubt; 22d) please.
Ans: > 400 µg/mL

Q: Quote MIC reported for O=c1ccn([C@H]2O[C@H](CO)[C@H](O)[C@@H]2O)c(=O)[nH]1 please.
Ans: > 400 µg/mL

Q: Quote MIC reported for Cc1cn([C@H]2O[C@H](CO)[C@H](O)[C@@H]2O)c(=O)[nH]c1=O please.
Ans: > 400 µg/mL

Q: Quote MIC reported for Nc1ccn([C@H]2O[C@H](CO)[C@H](O)[C@@H]2O)c(=O)n1 please.
Ans: > 400 µg/mL

Q: Quote MIC reported for Nc1ccn([C@@H]2O[C@H](CO)[C@H](O)[C@@H]2O)c(=O)n1 please.
Ans: > 200 µg/mL

Q: Quote MIC reported for Nc1nc2c(ncn2[C@@H]2O[C@H](CO)[C@H](O)[C@@H]2O)c(=O)[nH]1 please.
Ans: > 400 µg/mL

Q: Quote MIC reported for Nc1ncnc2c1ccn2[C@@H]1O[C@H](CO)[C@@H](O)[C@H]1O please.
Ans: 0.02 µg/mL

Q: Quote MIC reported for Cc1cn([C@@H]2O[C@H](CO)[C@H](O)[C@@H]2O)c(=O)[nH]c1=O please.
Ans: > 400 µg/mL

###

Species: Oryctolagus cuniculus
Assay Text: Minimum inhibitory concentration (MIC) required to reduce virus-induced cytopathogenicity by 50% against KOS strain of Herpes simplex virus-1 in primary rabbit kidney cells
Format: functional
Consider the following compounds; for each one, report its MIC.

Q: Quote MIC reported for O=c1ccn([C@H]2O[C@H](CO)[C@H](O)[C@@H]2O)c(=O)[nH]1 please.
Ans: > 400 µg/mL

Q: Quote MIC reported for NC(=O)c1ncn([C@@H]2O[C@H](CO)[C@@H](O)[C@H]2O)n1 please.
Ans: > 400 µg/mL

Q: Quote MIC reported for Cc1cn([C@@H]2O[C@H](CO)[C@H](O)[C@@H]2O)c(=O)[nH]c1=O please.
Ans: > 400 µg/mL

Q: Quote MIC reported for Nc1ccn([C@H]2O[C@H](CO)[C@H](O)[C@@H]2O)c(=O)n1 please.
Ans: > 400 µg/mL

Q: Quote MIC reported for Cc1cn([C@H]2O[C@H](CO)[C@H](O)[C@@H]2O)c(=O)[nH]c1=O please.
Ans: > 400 µg/mL

Q: Quote MIC reported for Nc1ncnc2c1ccn2[C@@H]1O[C@H](CO)[C@@H](O)[C@H]1O please.
Ans: > 0.4 µg/mL

Q: Quote MIC reported for O=c1ccn([C@@H]2O[C@H](CO)[C@H](O)[C@@H]2O)c(=O)[nH]1 please.
Ans: > 400 µg/mL

Q: Quote MIC reported for Nc1ncnc2c1ncn2[C@@H]1O[C@H](CO)[C@H](O)[C@@H]1O (stereo in doubt; 8) please.
Ans: > 400 µg/mL

Q: Quote MIC reported for Nc1nc2c(ncn2[C@H]2O[C@H](CO)[C@H](O)[C@@H]2O)c(=O)[nH]1 please.
Ans: > 400 µg/mL

Q: Quote MIC reported for Nc1ccn([C@@H]2O[C@H](CO)[C@H](O)[C@@H]2O)c(=O)n1 please.
Ans: > 200 µg/mL

Q: Quote MIC reported for Nc1nccc2c1ncn2[C@@H]1C[C@H](CO)[C@@H](O)[C@H]1O please.
Ans: > 400 µg/mL

Q: Quote MIC reported for Nc1nc2c(ncn2[C@@H]2O[C@H](CO)[C@H](O)[C@@H]2O)c(=O)[nH]1 please.
Ans: > 400 µg/mL

###

Consider the following compounds; for each one, report its MIC.
Tested on: Vero
Assay Text: Minimum inhibitory concentration (MIC) required to reduce virus-induced cytopathogenicity by 50% against Reo virus-1 in African green monkey kidney (Vero B)cells
Format: functional, Chlorocebus sabaeus
Condition Notes: Chlorocebus sabaeus; read-out: MIC

Q: Quote MIC reported for O=c1ccn([C@H]2O[C@H](CO)[C@H](O)[C@@H]2O)c(=O)[nH]1 please.
Ans: > 200 µg/mL

Q: Quote MIC reported for Nc1ncnc2c1ccn2[C@@H]1O[C@H](CO)[C@@H](O)[C@H]1O please.
Ans: > 0.1 µg/mL

Q: Quote MIC reported for Cc1cn([C@H]2O[C@H](CO)[C@H](O)[C@@H]2O)c(=O)[nH]c1=O please.
Ans: > 200 µg/mL

Q: Quote MIC reported for Nc1nccc2c1ncn2[C@@H]1C[C@H](CO)[C@@H](O)[C@H]1O please.
Ans: 1 µg/mL

Q: Quote MIC reported for NC(=O)c1ncn([C@@H]2O[C@H](CO)[C@@H](O)[C@H]2O)n1 please.
Ans: 70 µg/mL

Q: Quote MIC reported for Nc1ccn([C@@H]2O[C@H](CO)[C@H](O)[C@@H]2O)c(=O)n1 please.
Ans: > 200 µg/mL

Q: Quote MIC reported for Nc1nc2c(ncn2[C@@H]2O[C@H](CO)[C@H](O)[C@@H]2O)c(=O)[nH]1 please.
Ans: > 400 µg/mL

Q: Quote MIC reported for Nc1ncnc2c1ncn2[C@@H]1O[C@H](CO)[C@H](O)[C@@H]1O (stereo in doubt; 8) please.
Ans: > 400 µg/mL

Q: Quote MIC reported for O=c1ccn([C@@H]2O[C@H](CO)[C@H](O)[C@@H]2O)c(=O)[nH]1 please.
Ans: > 400 µg/mL

###

Consider the following molecules; for each one, report its MIC.
Test system: Vero
Assay Text: Minimum inhibitory concentration (MIC) required to reduce virus-induced cytopathogenicity by 50% against Reo virus-1 in African green monkey kidney (Vero B)cells
Format: functional, Chlorocebus sabaeus
Condition Notes: Chlorocebus sabaeus; read-out: MIC

Q: Quote MIC reported for Cc1cn([C@@H]2O[C@H](CO)[C@H](O)[C@@H]2O)c(=O)[nH]c1=O please.
Ans: > 400 µg/mL

Q: Quote MIC reported for Nc1nc2c(ncn2[C@H]2O[C@H](CO)[C@H](O)[C@@H]2O)c(=O)[nH]1 please.
Ans: > 400 µg/mL

Q: Quote MIC reported for Nc1ccn([C@H]2O[C@H](CO)[C@H](O)[C@@H]2O)c(=O)n1 please.
Ans: > 400 µg/mL

###

Consider the following compounds; for each one, report its MCC.
System: Vero
Assay Text: Minimum cytotoxic concentration (MCC) required to cause a microscopically detectable alteration of host cell morphology, when incubated with Vero B cells
Assay type: functional
Condition Notes: Chlorocebus sabaeus

Q: Quote MCC reported for Nc1nc2c(ncn2[C@H]2O[C@H](CO)[C@H](O)[C@@H]2O)c(=O)[nH]1 please.
Ans: > 400 µg/mL

Q: Quote MCC reported for Nc1nc2c(ncn2[C@@H]2O[C@H](CO)[C@H](O)[C@@H]2O)c(=O)[nH]1 please.
Ans: > 400 µg/mL

Q: Quote MCC reported for Nc1nccc2c1ncn2[C@@H]1C[C@H](CO)[C@@H](O)[C@H]1O please.
Ans: > 400 µg/mL
